Biological target: T1, T250A
T1 construct: % monomer 91.61; also called MICA*008.mIgG2a T250A
T1 chain: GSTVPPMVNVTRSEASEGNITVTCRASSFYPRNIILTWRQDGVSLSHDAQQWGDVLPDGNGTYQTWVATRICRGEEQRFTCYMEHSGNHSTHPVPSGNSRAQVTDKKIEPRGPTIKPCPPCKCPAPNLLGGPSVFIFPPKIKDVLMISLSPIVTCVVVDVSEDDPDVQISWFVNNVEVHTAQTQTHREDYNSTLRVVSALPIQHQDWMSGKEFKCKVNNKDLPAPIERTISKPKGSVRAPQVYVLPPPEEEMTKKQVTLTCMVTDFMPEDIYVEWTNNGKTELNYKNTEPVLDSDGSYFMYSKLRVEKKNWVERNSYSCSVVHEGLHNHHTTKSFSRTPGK
Assay: SPR, Fab over captured MICA*008.mIgG2a Ala variant; KD relative to wild type
Reported fold-decrease in affinity is given for each of the following binders.
Please respond with just the number, no unit label.

Some binders with known fold-decrease in affinity results, for comparison:
Lookup: Dear colleague, I am looking for the recorded fold-decrease in affinity of the following binder: 7D4.6 Fab (Fab, V domains shown) VH: DVQLQESGPGLVKPSQSLSLTCTVTGYSITSDYAWNWIRQFPRNKLEWMGYINYSGTTNYNPSLKSRISITRDTSKNQFFLQLISVTTEDTATYYCSYYRYDGAWFPYWGQGTLVTVSA VL: DIQMTQSPASLSASVGETVTITCRASGNIHNYLAWYQQKQGKSPQLLVYNAIMLADGVPSRFSASGSGTQYSLKINSLQPEDFGSYYCQHFWSFPLTFGAGTKVEIK
Found: 0.6

Lookup: Fill blank: measured fold-decrease in affinity of the binder 1D5 Fab (Fab, V domains shown, Expressed in E. coli as chimera of murine variable and human constant domains; not shown: human IgG1 CH1 constant domain; human kappa CL constant domain) VH: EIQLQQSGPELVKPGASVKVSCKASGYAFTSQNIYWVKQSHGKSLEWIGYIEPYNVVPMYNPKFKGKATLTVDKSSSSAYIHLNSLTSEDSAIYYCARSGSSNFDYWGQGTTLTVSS VL: EIILTQSPTTMAASPGEKITITCSASSSISSHYLHWYQQKSGFSPKLLIYRTSNLASGVPARFSGSGSGTSYSLTIGTMEAEDVATYYCQQGSSLPLTFGAGTKVEIK is ____.
Found: 8.8

Lookup: Tell me the measured fold-decrease in affinity of 2E5.2.3 Fab (Fab, V domains shown) VH: QGQMQQSGAELVKPGASVKLSCKTSGFTFSDNYISWLKQKPGQSLEWIAWIYAGTGGTSYNQKFTAKAQLTVDTSSSTAYMQFSSLTTEDSAIYYCARHDYYGTSGAWFAYWGQGTLVTVSA VL: DVLMTQTPLSLPVSLGDQASLSCRSSQNIVHINGNTYLEWYLQKPGQSPKLLIYKVSNRFSGVPDRFSGSGSGTDFTLKISRVEAEDLGVYYCFQGSHVPWTFGGGTKVEIK , please.
Found: 1.2

***
Lookup: I'd like to know its fold-decrease in affinity. The binder in question is 6F8.7 Fab (Fab, V domains shown) VH: DVQLQGSGPGLVKPSQSLSLTCSVTGYSITNDYYWNWIRQFPGNKLEWMGFISFGGSNNYNPSLKNRISITRDTSKNQFFLKLSSVTTEDTATYYCARYDGRGAWFAYWAQGTLVTVSA VL: DIQMTQSPASLSASVGETVTITCRASGNIHNYLAWYQQKQGKSPQLLVYDAITLADGVPSRFSGSGSGTQYSLKINSLQPEDFGNYYCQHFWSFPLTFGAGTKVEIK
Found: 0.5
